Listed here are molecules together with their documented max response.
target: Nuclear receptor subfamily 1 group I member 2 (Rattus norvegicus); test: qHTS assay for small molecule activators of the rat pregnane X receptor (rPXR) signaling pathway (AID 651751); details: rPXR reporter cells, luciferase (One-Glo), 24 h; note: 0% is about no effect

{"columns": ["MOLECULE", "max response [%]"],
 "data": [
  ["O=Cc1ccc(Cl)cc1", -2.77],
  ["C=C(C)OC(C)=O", -1.49],
  ["Cc1ccc(C)o1", -1.6],
  ["Cc1cscn1", 0.103],
  ["CC(=O)OC(C)=O", 5.82],
  ["Oc1cccc(Nc2ccccc2)c1", 5.07],
  ["C=CCCC", 2.44],
  ["[O-]/[N+](=N\\O)c1ccccc1", -1.54],
  ["CCCCC(C=O)CC (stereo not drawn)", -0.0559],
  ["CCC1CO1 (stereo not drawn)", 4.08],
  ["CC(C)(O)CCC(C)(C)O", 3.24],
  ["Cc1ccc2cccnc2c1", -2.67],
  ["O=[N+]([O-])c1c(Cl)cc(Cl)cc1Cl", 9.05],
  ["O=C1CCCCC1", 2.79],
  ["ClCCl", 1.89],
  ["Cc1c(N)cccc1N", 3.73],
  ["Cc1cc(C)cc(O)c1", -0.901],
  ["CCCCCCCCN", 0.0694],
  ["CC(C)c1ccccc1", -5.7],
  ["Cc1ccc2c(c1[N+](=O)[O-])C(=O)c1ccccc1C2=O", 5.79],
  ["COc1ccc(OC)cc1", 2.22],
  ["ClC/C=C/CCl", 5.09],
  ["CCOC(C)(C)C", -4.12],
  ["CCC=O", 1.07],
  ["CC(=O)c1nccs1", 8.24],
  ["Cc1ccc([N+](=O)[O-])c(N)c1", -3.2],
  ["CCCC(Cl)CCCC(Cl)CCC(Cl)CCC(Cl)CCC(Cl)CCCC(Cl)CCC (stereo not drawn)", 2.04],
  ["OC/C(Br)=C(\\Br)CO", 0.247],
  ["Cc1cccc(C(=O)O)c1[N+](=O)[O-]", -0.47],
  ["CC(=O)C1(C)CC2=C(CCCC2(C)C)CC1C (stereo not drawn)", 2.11],
  ["CC(C)N(C)C", -2.95],
  ["CCCC=O", 1.21],
  ["N#CC1(O)CCCCC1", 2.59],
  ["CCOC(=O)C(C)C(C)=O (stereo not drawn)", 4.21],
  ["CCOCC(=O)O", 1.81],
  ["CC1CCC2CC1C2(C)C (stereo not drawn)", -2.72],
  ["c1ccc2c(c1)Oc1ccccc1S2", -3.68],
  ["O=c1[nH][nH]c(=O)c2cc([N+](=O)[O-])ccc12", -1.39]
]}
